Reference source: paper PMC11374673

test system: E. coli BW25113; assay: Bacterial cytological profiling (BCP); assay type: cell-based, Escherichia coli; details: BCP
Item-by-item account of DIC sinuosity
metric_name: DIC sinuosity

compound	study_target	meas_value
CC1(C)S[C@@H]2[C@H](NC(=O)[C@H](N)c3ccccc3)C(=O)N2[C@H]1C(=O)O [AMP, ampicillin, reference compound]	E. coli BW25113	1.033
O=S(=O)(NC[C@H]1CC[C@@H](c2ccc(-c3ccc(F)nc3)cc2)N1)c1cccc2cnccc12 [LEI-801]	E. coli BW25113	1.026
O=S(=O)(NC[C@@H]1CC[C@H](c2ccc(-c3cccnc3)cc2)N1)c1cccc2cnccc12 [LEI-800]	E. coli BW25113	1.021
CO[C@H]1/C=C/O[C@@]2(C)Oc3c(C)c(O)c4c(O)c(c(/C=N/N5CCN(C)CC5)c(O)c4c3C2=O)NC(=O)/C(C)=C\C=C\[C@H](C)[C@H](O)[C@@H](C)[C@@H](O)[C@@H](C)[C@H](OC(C)=O)[C@@H]1C [RIF, rifampicin, reference compound]	E. coli BW25113	1.017

====

Item-by-item account of IC50
tested on: HEK293T; experiment: Cytotoxicity assay (MTT); type: cell-based, human; conditions: Homo sapiens, HEK-293T, 24 h, MTT
metric_name: IC50 (µM)

> print(dat)
                           molecular.string  study.target  unit.of.measure  meas.value
1  O=S(=O)(NC[C@@H]1CC[C@H](c2ccc(-c3cccnc3)cc2)N1)c1cccc2cnccc12       HEK293T               µM          65
2  O=S(=O)(NC[C@H]1CC[C@@H](c2ccc(-c3ccc(F)nc3)cc2)N1)c1cccc2cnccc12       HEK293T               µM          51
3  O=S(=O)(NCCNCc1ccc(-c2ccccc2)cc1)c1cccc2cnccc12       HEK293T               µM          10
4  O=S(=O)(NC[C@@H]1CC[C@H](c2ccc(-c3ccccc3)cc2)N1)c1cccc2cnccc12       HEK293T               µM         8.1
5  O=S(=O)(NCCNCc1ccc(-c2ccc(Cl)cc2)cc1)c1cccc2cnccc12       HEK293T               µM           1
6  O=S(=O)(NCCNCc1ccc(-c2ccc(F)cc2)cc1)c1cccc2cnccc12       HEK293T               µM         1.7
7  O=S(=O)(NCCNCc1ccc(-c2ccsc2)cc1)c1cccc2cnccc12       HEK293T               µM         6.6

====

Item-by-item account of pIC50
tested on: HEK293T; test: Cytotoxicity assay (MTT); assay type: cell-based, human; details: Homo sapiens, HEK-293T, 24 h, MTT
pIC50: −log10 of the molar value.
metric_name: pIC50

> print(dat)
                           molecular.string  metric.name  value.relation.sign  meas.value
1  O=S(=O)(NCCNCc1ccc(-c2ccc(F)nc2)cc1)c1cccc2cnccc12        pIC50                    =        4.29
2  O=S(=O)(NC[C@@H]1CC[C@H](c2ccc(-c3ccc(F)nc3)cc2)N1)c1cccc2cnccc12        pIC50                    =        4.66
3  O=S(=O)(NC[C@H]1CC[C@H](c2ccc(-c3ccc(F)nc3)cc2)N1)c1cccc2cnccc12        pIC50                    =        4.41
4  O=S(=O)(NC[C@@H]1CC[C@H](c2ccc(-c3ccc(F)cc3)cc2)N1)c1cccc2cnccc12        pIC50                    =        5.49
5  O=S(=O)(NCCNCc1ccc(-c2ccc(F)nc2)c(F)c1)c1cccc2cnccc12        pIC50                    =        5.05
6  O=S(=O)(NCCNCc1ccc(-c2cccnc2)cc1)c1cccc2cnccc12        pIC50                    <        4.30
7  N#Cc1ccc(-c2ccc(CNCCNS(=O)(=O)c3cccc4cnccc34)cc2)cc1        pIC50                    =        4.83
8  O=S(=O)(NC[C@@H]1CC[C@@H](c2ccc(-c3ccc(F)nc3)cc2)N1)c1cccc2cnccc12        pIC50                    =        4.31
